Listing of entries alongside the reported IC50.
# Study target: PDE5A (Homo sapiens, UniProt O76074)
# Construct: they are full-length with N-terminal GST tag; GST (N); purchased BPS Biosciences 60050; host or cells: baculovirus infected Sf9 cells
# Experiment notes: PDE enzyme activity assay (HTRF cGMP), PDE5A
# Type: biochemical
# Cond: recombinant enzyme; read-out: PDE5A1 inhibition (IC50)

Answered examples (2):
CCCc1nn(C)c2c(=O)[nH]c(-c3cc(Nc4ccc(C(=O)NO)cc4)ccc3OCC)nc12 | < 10 nM
CCCc1nn(C)c2c(=O)[nH]c(-c3cc(CC4CCC(C(=O)NO)CC4)ccc3OCC)nc12 (racemic) [Example 1-76] | 10 to 1000 nM

Query: IC50; subject: CCCc1nn(C)c2c(=O)[nH]c(-c3cc(CN4CCC(C(=O)NO)CC4)ccc3OCC)nc12
10 to 1000 nM

Check CCCc1nn(C)c2c(=O)[nH]c(-c3cc(CC4CCC(C(=O)NO)C4)ccc3OCC)nc12 (centres unmarked) [Example 1-83] too.
10 to 1000 nM

Check CCCc1nn(C)c2c(=O)[nH]c(-c3cc(N4CCC(CCC(=O)NO)CC4)ccc3OCC)nc12 too.
10 to 1000 nM

Check CCCc1nn(C)c2c(=O)[nH]c(-c3cc(OC4CCN(c5ncc(C(=O)NO)cn5)CC4)ccc3OCC)nc12 too.
10 to 1000 nM

* * *

# Study target: HDAC1 (Homo sapiens, UniProt Q13547)
# Sequence (Q13547 whole entry): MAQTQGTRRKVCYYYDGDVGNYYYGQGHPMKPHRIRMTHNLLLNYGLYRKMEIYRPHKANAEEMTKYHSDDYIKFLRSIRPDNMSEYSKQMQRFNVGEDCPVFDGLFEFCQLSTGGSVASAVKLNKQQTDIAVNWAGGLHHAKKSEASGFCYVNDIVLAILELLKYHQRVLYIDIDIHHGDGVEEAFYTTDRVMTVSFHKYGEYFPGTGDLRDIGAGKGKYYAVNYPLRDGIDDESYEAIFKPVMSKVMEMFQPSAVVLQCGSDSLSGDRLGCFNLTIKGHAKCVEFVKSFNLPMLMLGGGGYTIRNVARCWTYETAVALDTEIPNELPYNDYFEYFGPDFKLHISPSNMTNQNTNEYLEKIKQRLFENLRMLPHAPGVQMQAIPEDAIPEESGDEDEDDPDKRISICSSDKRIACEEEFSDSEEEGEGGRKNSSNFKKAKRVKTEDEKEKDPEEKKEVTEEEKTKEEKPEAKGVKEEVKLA
# Experiment notes: HDAC enzyme activity assay (fluorogenic substrate), HDAC1
# Assay type: biochemical
# Cond: recombinant enzyme; read-out: HDAC1 inhibition (IC50)
pIC50: −log10 of the molar value.
Listing of entries alongside the reported pIC50.

Answered examples (3):
CCCc1nn(C)c2c(=O)[nH]c(-c3cc(N4CCC5(CCC(C(=O)NO)C5)CC4)ccc3OCC)nc12 (stereo not shown) | < 5.00
CCCc1nn(C)c2c(=O)[nH]c(-c3cc(C4=CCC(CC(=O)NO)CC4)ccc3OCC)nc12 (stereo not shown) | 5.00 to 6.00
CC(c1nc2c(cnn2C2CCOCC2)c(=O)[nH]1)N1CC(Cc2ccc(C(=O)NO)cc2)C1 (stereo not shown) | 5.00 to 6.00

Could you share what pIC50 was measured for CCCc1nn(C)c2c(=O)[nH]c(-c3cc(NC4CCN(c5ncc(C(=O)NO)cn5)CC4)ccc3OCC)nc12 , tested on HDAC1 (Homo sapiens, UniProt Q13547)?
6.00 to 8.00

Check CCCc1nn(C)c2c(=O)[nH]c(-c3cc(CC4CCN(c5ccc(C(=O)NO)cn5)CC4)ccc3OCC)nc12 too.
5.00 to 6.00

Check CCCc1nc(C)c2c(=O)[nH]c(-c3cc(S(=O)(=O)N4CCN(CCCC(=O)NO)CC4)ccc3OCC)nn12 too.
6.00 to 8.00

Check CCCc1nn(C)c2c(=O)[nH]c(-c3cc(OCc4ccc(C(=O)NO)cc4)ccc3OCC)nc12 too.
5.00 to 6.00

Check CCCc1nn(C)c2c(=O)[nH]c(-c3cc(CC4CCC(C(=O)NO)CC4)ccc3OCC)nc12 (stereo not shown) [Example 1-28] too.
6.00 to 8.00

Check CCCc1nn(C)c2c(=O)[nH]c(-c3cc(S(=O)(=O)N4CCN(CCC(=O)NO)CC4)ccc3OCC)nc12 too.
5.00 to 6.00
